# assayed_system: h FPR2 (Homo sapiens, UniProt P25090)
# Sequence (P25090 whole entry): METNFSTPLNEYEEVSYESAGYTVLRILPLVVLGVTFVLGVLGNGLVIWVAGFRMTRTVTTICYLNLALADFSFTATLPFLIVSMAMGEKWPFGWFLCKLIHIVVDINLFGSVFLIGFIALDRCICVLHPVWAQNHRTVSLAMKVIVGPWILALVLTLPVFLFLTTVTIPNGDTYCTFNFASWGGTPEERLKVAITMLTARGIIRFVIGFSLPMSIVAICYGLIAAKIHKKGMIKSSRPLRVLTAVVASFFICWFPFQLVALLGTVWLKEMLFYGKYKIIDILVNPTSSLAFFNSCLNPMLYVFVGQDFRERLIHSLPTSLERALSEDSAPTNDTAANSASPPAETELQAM
# assay_name: Agonistic activity in hFPR2-Aq-CHO cells (FLIPR Calcium 5 fluorescence assay)
# assay_conditions: 11 point half log dilution, final assay concentration from 10µM
readout_type: log10 EC50 (log10 of the value in nM)
Heads up: the numbers are on a log10 scale; they represent EC50 in nM.

[in] Fill blank: measured log10 EC50 of the molecule O=C(Nc1ccccc1)N[C@@H]1CCN(CC2CNC2)C[C@H]1c1ccc(Cl)cn1 (relative stereo) is ____.
[out] 1.43

[in] Fill blank: measured log10 EC50 of the molecule COCCCN1CC[C@@H](NC(=O)Nc2ccc(Cl)cc2)[C@H](c2ccc(OC)cn2)C1 (racemic) [Ex-80] is ____.
[out] -0.05

[in] Fill blank: measured log10 EC50 of the molecule Cc1cc(NC(=O)N[C@@H]2CCN(Cc3cc(C)on3)C[C@H]2c2ccc(Cl)s2)sn1 (single isomer, unassigned) [Ex-48] is ____.
[out] 1.86

[in] Fill blank: measured log10 EC50 of the molecule CS(=O)(=O)n1ccc(CN2CC[C@@H](NC(=O)Nc3ccccc3)[C@H](c3ccc(Cl)s3)C2)n1 (single isomer, unassigned) [Ex-57] is ____.
[out] 1.74

[in] Fill blank: measured log10 EC50 of the molecule O=C(Nc1ccc(Cl)cc1)N[C@@H]1CCN(CCCO)C[C@H]1c1ccc(Cl)s1 (relative stereo) is ____.
[out] 1.04

[in] Fill blank: measured log10 EC50 of the molecule COc1ccc([C@@H]2CN(CCCN(C)C)CC[C@H]2NC(=O)Nc2ccc(Cl)cc2)nc1 (relative stereo) is ____.
[out] -0.70

[in] Fill blank: measured log10 EC50 of the molecule COc1cnc([C@@H]2CN(C3COC3)CC[C@H]2NC(=O)Nc2ccc(Cl)cc2)c(F)c1 (relative stereo) is ____.
[out] 0.60

[in] Fill blank: measured log10 EC50 of the molecule COc1ccc([C@@H]2CN(C(=O)C3COC3)CC[C@H]2NC(=O)Nc2ccc(Cl)cc2)nc1 (relative stereo) is ____.
[out] 0.60

[in] Fill blank: measured log10 EC50 of the molecule COc1ccc([C@@H]2CN(CC3CCN(C)CC3)CC[C@H]2NC(=O)Nc2ccc(Cl)cc2)nc1 (relative stereo) is ____.
[out] -0.40

[in] Fill blank: measured log10 EC50 of the molecule COc1ccc([C@@H]2CN(CCN(C)C)CC[C@H]2NC(=O)Nc2ccc(Cl)cc2)nc1 (relative stereo) is ____.
[out] 0.15

[in] Fill blank: measured log10 EC50 of the molecule COc1ccc([C@@H]2CN(CC3COC3)CC[C@H]2NC(=O)Nc2ccc(Cl)cc2)nc1 (relative stereo) is ____.
[out] 0.08

[in] Fill blank: measured log10 EC50 of the molecule COc1ccc([C@@H]2CN(CCS(C)(=O)=O)CC[C@H]2NC(=O)Nc2cc(C)ns2)nc1 (relative stereo) is ____.
[out] 0.78

[in] Fill blank: measured log10 EC50 of the molecule COc1ccc([C@@H]2CN(c3ccncn3)CC[C@H]2NC(=O)Nc2cc(C)ns2)nc1 (relative stereo) is ____.
[out] 0.00

[in] Fill blank: measured log10 EC50 of the molecule COc1ccc([C@@H]2CN(CC3(C#N)CC3)CC[C@H]2NC(=O)Nc2ccc(Cl)cc2)nc1 (relative stereo) is ____.
[out] -1.05

[in] Fill blank: measured log10 EC50 of the molecule COc1ccc([C@@H]2CN(CC3CCC(O)CC3)CC[C@H]2NC(=O)Nc2ccc(Cl)cc2)nc1 (relative stereo) is ____.
[out] -0.22

[in] Fill blank: measured log10 EC50 of the molecule COc1cnc([C@@H]2CN(CC3CCC(O)CC3)CC[C@H]2NC(=O)Nc2ccc(Cl)cc2)c(F)c1 (relative stereo) is ____.
[out] -0.05

# credit: patent EP3789378A1
